Assay: in vitro
Details: human
metric: CC50

I have this molecule here, `CC(=O)N[C@@H](CCC(=O)O)C(=O)N[C@H](C(=O)N[C@@H](CCN)C(=O)N[C@H]1CCNC(=O)[C@H](Cn2cc(CC(=O)O)nn2)NC(=O)[C@H](CCN)NC(=O)[C@H](CCN)NC(=O)[C@H](Cc2ccc(O)cc2)NC(=O)[C@@H](Cc2ccccc2)NC(=O)[C@H](Cc2ccc(O)cc2)NC1=O)[C@@H](C)O` , and I need its recorded CC50. > 50 µM

Also check N#C[C@@]1(c2ccc3c(N)ncnn23)O[C@H](CO)[C@@H](O)[C@H]1O [GS-441524, reference compound] > 40 µM

Also check `CC(=O)N[C@@H](CCC(=O)O)C(=O)N[C@H](C(=O)N[C@@H](CCN)C(=O)N[C@H]1CCNC(=O)[C@H](Cn2cc(CC(=O)O)nn2)NC(=O)[C@H](CCN)NC(=O)[C@H](CCN)NC(=O)[C@H](CC(C)C)NC(=O)[C@@H](Cc2ccccc2)NC(=O)[C@H](Cc2ccc(O)cc2)NC1=O)[C@@H](C)O` > 50 µM

Also check `CC[C@H](C)[C@@H]1NC(=O)[C@@H](NC(=O)[C@H](CCN)NC(=O)[C@@H](NC(=O)[C@H](CC(C)C)NC(C)=O)[C@@H](C)O)CCNC(=O)[C@H](Cn2cc(CC(=O)N[C@@H](CCN)C(=O)N[C@H]3CCNC(=O)[C@H]([C@@H](C)O)NC(=O)[C@H](CCN)NC(=O)[C@H](Cc4c[nH]c5ccccc45)NC(=O)[C@H](CC(C)C)NC(=O)[C@@H](Cc4ccccc4)NC(=O)[C@H](Cc4ccc(O)cc4)NC3=O)nn2)NC(=O)[C@H](CCN)NC(=O)[C@H](CCN)NC(=O)[C@H](Cc2ccc(O)cc2)NC(=O)[C@@H](Cc2ccccc2)NC1=O` > 50 µM

Also check `CC[C@H](C)[C@@H]1NC(=O)[C@@H](NC(=O)[C@H](CCN)NC(=O)[C@@H](NC(=O)[C@H](CC(C)C)NC(C)=O)[C@@H](C)O)CCNC(=O)[C@H](Cn2cc(CC(=O)O)nn2)NC(=O)[C@H](CCN)NC(=O)[C@H](CCN)NC(=O)[C@H](Cc2ccc(O)cc2)NC(=O)[C@@H](Cc2ccccc2)NC1=O` > 50 µM

Also check `CC[C@H](C)[C@@H]1NC(=O)[C@@H](NC(=O)[C@H](CCN)NC(=O)[C@@H](NC(=O)[C@H](CC(C)C)NC(C)=O)[C@@H](C)O)CCNC(=O)[C@H](Cn2cc(CCC(=O)N[C@@H](CCN)C(=O)N[C@H]3CCNC(=O)[C@H]([C@@H](C)O)NC(=O)[C@H](CCN)NC(=O)[C@H](Cc4c[nH]c5ccccc45)NC(=O)[C@H](CC(C)C)NC(=O)[C@@H](Cc4ccccc4)NC(=O)[C@H](Cc4ccc(O)cc4)NC3=O)nn2)NC(=O)[C@H](CCN)NC(=O)[C@H](CCN)NC(=O)[C@H](Cc2ccc(O)cc2)NC(=O)[C@@H](Cc2ccccc2)NC1=O` > 50 µM

* * *

Assay: in vitro
Conditions: human
metric: CC50

I have this molecule here, `CC[C@H](C)[C@@H]1NC(=O)[C@@H](NC(=O)[C@H](CCN)NC(=O)[C@@H](NC(=O)[C@H](CC(C)C)NC(C)=O)[C@@H](C)O)CCNC(=O)[C@H](Cn2cc(CC(=O)N[C@@H](CCN)C(=O)N[C@H]3CCNC(=O)[C@H]([C@@H](C)O)NC(=O)[C@H](CCN)NC(=O)[C@H](Cc4c[nH]c5ccccc45)NC(=O)[C@H](CC(C)C)NC(=O)[C@@H](Cc4ccccc4)NC(=O)[C@H](Cc4ccc(O)cc4)NC3=O)nn2)NC(=O)[C@H](CCN)NC(=O)[C@H](CCN)NC(=O)[C@H](Cc2ccc(O)cc2)NC(=O)[C@@H](Cc2ccccc2)NC1=O` , and I need its recorded CC50. > 50 µM
